Entry source: PubChem BioAssay (NCI)

Assignment: determine reported growth for the given compounds.
System: RXF 393 renal
Assay: NCI-60 one-dose screen, 48 h (100 = growth as untreated, 0 = no growth, -100 = all killed)
Details: 10 µM unless noted
About 83,000 compounds went through this panel and 20% of them were active in at least one assay; those are over-represented in the sample as a whole.
Give bare numbers, in %.

Some compounds with known growth results, for comparison:
compound=COc1ccc(-c2cc(-c3ccccc3)c(C#N)c(=O)[nH]2)cc1S(N)(=O)=O val=100
compound=O=c1[nH]c2ccccc2cc1CSc1ccccc1Nc1nccc(-c2ccc3c(c2)OCO3)n1 val=81.5
compound=N#Cc1ccc(C(=O)NNC(=O)CSc2nc3sc4c(c3c(=O)n2-c2ccc(Cl)cc2)CCCC4)cc1 val=47.5

// for each compound below, give its growth
1. O=C(N=Nc1c(O)[nH]c2ccc(Br)cc12)c1ccc2nc(-c3ccc(Cl)cc3)[nH]c2c1
2. O=C(c1ccc(O)cc1)C1[C@H](c2ccc(Cl)cc2)[C@@H](c2ccccc2)NC12C(=O)Nc1ccccc12 (some centres undefined)

1. -42.3
2. -74

----------
Consider the following compounds; for each one, report its growth.
Test system: TK-10 renal
Experiment: NCI-60 one-dose screen, 48 h (100 = growth as untreated, 0 = no growth, -100 = all killed)
Conditions: 10 µM
About 83,000 compounds went through this panel and 20% of them were active in at least one assay; those are over-represented in the sample as a whole.
Give bare numbers, in %.

Answered examples (3):
smiles_str=CC/C(=C(\c1ccc(O)cc1)c1ccc(OCCNC)cc1)c1ccccc1 measure_name=growth measure_unit=% val=94.5
smiles_str=CC/C(=C(/c1ccc(O)cc1)c1ccc(OCCN(C)C(=O)COCCOCCNC(=O)c2ccc3c(c2)CN([C@@H]2CCC(=O)NC2=O)C3=O)cc1)c1ccccc1 measure_name=growth measure_unit=% val=91.2
smiles_str=CC/C(=C(\c1ccc(O)cc1)c1ccc(OCCN(C)C(=O)COCCNC(=O)Cc2ccc3c(c2)CN([C@@H]2CCC(=O)NC2=O)C3=O)cc1)c1ccccc1 measure_name=growth measure_unit=% val=84.2

Look up growth: `CC/C(=C(/c1ccc(O)cc1)c1ccc(OCCN(C)C(=O)CCOCCNC(=O)Cc2ccc3c(c2)CN([C@@H]2CCC(=O)NC2=O)C3=O)cc1)c1ccccc1`
93.5

----------
Tested on: IGROV1 ovarian
Test: NCI-60 one-dose screen, 48 h
Settings: 10 µM unless noted
This is part of a sample that, as a whole, favours compounds with a hit. Of some 83,000 tested, about 20% had one in any assay. Active and inactive are the calls of the source. Rule for the calls: active = growth percent below 10; inactive = the rest.
Bench note: report the call from active, inactive

compound="COc1c2c(c(Br)c3c1C(CCc1ccccc1)N(C)CC3)OCO2 (stereo not given)" assigned_label=inactive
compound=COc1ccc2oc(=O)c(-c3csc(N/N=C(\C)c4cc(OC)c(OC)c(OC)c4)n3)cc2c1 assigned_label=inactive
compound=c1n[nH]cc1-c1nc2ccc3[nH]ncc3c2c2c1CC1(CCOCC1)CC2 assigned_label=inactive
compound=C[C@H](NC(=O)c1ccc2c(-c3ccc(C(F)(F)F)cc3)cccc2c1)c1ccccn1 assigned_label=inactive
compound="Cc1ccc(C2CC(c3ccc(NC(=O)Nc4ccccc4)cc3)=NN2c2ccc(S(N)(=O)=O)cc2)cc1 (stereo not given)" assigned_label=active

Per the records of this test, what outcome belongs to COc1ccc(C2=NN(C(=O)[C@H]3[C@@H](c4ccco4)c4sc(=O)[nH]c4S[C@@H]3C)C(c3ccc4ccccc4c3)C2)cc1 (stereo not given in full) ?
inactive

Continue with `O=C1Nc2cc(-c3ccc(NS(=O)(=O)c4ccc([N+](=O)[O-])cc4)cc3)ccc2/C1=C/c1ccc[nH]1`
inactive

Okay, and `COc1ccc(/C=C/C(=O)c2ccc(S(=O)(=O)NCCNc3nc(N(C)C)nc(N4CCOCC4)n3)cc2)cc1` ?
inactive

What would you report for O=C(c1ccc(Cl)cc1)C1[C@H](c2ccccc2Cl)[C@@H](c2ccccc2)NC12C(=O)Nc1ccccc12 (stereo not given in full) ?
active

Request: `COc1cccc(C(N)=Nc2ccc(OCCCCCCCCn3cncn3)cc2)c1`
inactive

----------
Assignment: determine reported growth for the given compounds.
Tested on: TK-10 renal
Assay: NCI-60 one-dose screen, 48 h (100 = growth as untreated, 0 = no growth, -100 = all killed)
Settings: 10 µM unless noted
Compounds without any hit were thinned out: in the full panel of roughly 83,000, 20% have a hit.
Give bare numbers, in %.

Please state, for each entry, its recorded growth.
1. N#CCc1nnc(NC(=O)c2ccc(-n3c(=O)[nH]c4ccccc4c3=O)cc2)s1
2. O=c1[nH]c2ccccc2cc1CSc1ccccc1Nc1nccc(-c2ccc3c(c2)OCO3)n1
3. COc1ccc(/C=C/C(=O)c2ccc(OC)c(S(N)(=O)=O)c2)c(C(F)(F)F)c1
4. CN1C(=O)C(O)(CC(=O)c2cc3ccccc3oc2=O)c2ccccc21 (stereo not drawn)
5. Fc1ccccc1CNc1nc(SCCN2CCOCC2)nc2c1cnn2CC(Cl)c1ccc(Br)cc1 (stereo not drawn)
6. CC[C@]12C=CCN3CC[C@]4(C(=C(C(=O)OC)C1)Nc1cc(OC)c([C@@H]5[C@H]6O[C@H]6[C@@]6(CC)CC(C(=O)OC)=C7Nc8cc(O)ccc8[C@@]78CCN5[C@@H]68)cc14)[C@@H]32

1: 104; 2: 107; 3: 77.9; 4: 116; 5: 58.9; 6: 25.6

Report growth for every entry below.
1. COc1cc(/C=C/C(=O)c2cnn(-c3cc(=O)[nH]c4ccc(C)cc34)c2C)cc(OC)c1OC
2. Nc1nn2c(-c3cc4cc(Br)ccc4oc3=O)ccnc2c1N=Nc1ccc(S(N)(=O)=O)cc1

[37.8, 114]

----------
Test system: BT-549 breast
Test: NCI-60 one-dose screen, 48 h
Details: 10 µM unless noted
About 83,000 compounds went through this panel and 20% of them were active in at least one assay; those are over-represented in the sample as a whole. Active and inactive are the calls of the source. Rule for the calls: active = growth percent below 10; inactive = the rest.
Mark one answer only. Choices: T for active, F for inactive

compound=CCOc1ccccc1NC(=O)N/C(N)=N/c1nc2ccccc2s1 assigned_label=F
compound=CCCCCCCOc1ccc(S(=O)(=O)Nc2ccc(C)c(F)c2C(=O)O)cc1 assigned_label=F
compound=COC(=O)c1cccc(Oc2ccc(NC(=O)Nc3cc(C(F)(F)F)ccc3F)cc2)c1 assigned_label=F
compound=COc1ccc2[nH]c(=O)cc(-n3ncc(C(=O)/C=C/c4cc(OC)c(OC)c(OC)c4)c3C)c2c1 assigned_label=T

Next up:
Which outcome did this test record for the compound Cc1ccc(C2CC(c3ccc(NC(=S)Nc4ccccc4)cc3)=NN2c2ccc(S(N)(=O)=O)cc2)cc1 (centres undefined) ?
T

----------
Test system: CCRF-CEM leukemia
Assay: NCI-60 one-dose screen, 48 h
Details: 10 µM unless noted
The panel holds about 83,000 compounds, 20% with a hit somewhere; the sample as a whole holds those more often. Calls of active or inactive are those of the source. The calls were made as follows: active = growth percent below 10; inactive = the rest.
Reply using exactly one outcome from YES (active), NO (inactive)

molecule="CC1CCc2c(sc3nc(SCC(=O)c4cccc([N+](=O)[O-])c4)n(-c4ccccc4)c(=O)c23)C1 (stereo not drawn)" assigned_label=NO

What is the recorded call for this molecule in the test? `C#CCCCNCCNc1ccnc2cc(Cl)ccc12`
NO

Consider next the molecule `Nc1nc(-c2ccccc2)c(N=Nc2ccc(Cl)cc2Cl)s1` in the same way.
YES

Next up: COc1ccc2c(c1)C(Sc1ccc(Br)cc1)c1c(nc(N)c(C#N)c1N)O2 (stereo not drawn)
YES

`CN1CCN(C(=O)Oc2cc3c(c4ccccc24)[C@H](CCl)CN3C(=O)c2cc3cc(OCCCN4CCC4)ccc3[nH]2)[C@@H]2CSSC[C@H]21` ?
YES

CCOc1ccccc1[C@H]1C(C(=O)c2ccc(Cl)cc2)C2(N[C@@H]1c1ccccc1)C(=O)Nc1ccccc12 (stereo partly drawn) ?
NO

Consider next the molecule O=C1CCC(N2C(=O)c3cccc(NCCOCCOCCOCCC(=O)NCCCC(=O)NC(c4ccc5c(c4)OCO5)c4cc(Cl)c5cccnc5c4O)c3C2=O)C(=O)C1 (stereo not drawn) in the same way.
YES

Likewise for `COc1c(B(O)O)cc(F)cc1-c1nc2c(F)cc3[nH]ncc3c2c2c1CCCC2` ?
YES

----------
Test system: RXF 393 renal
Experiment: NCI-60 one-dose screen, 48 h
Settings: 10 µM unless noted
About 83,000 compounds went through this panel and 20% of them were active in at least one assay; those are over-represented in the sample as a whole. Active and inactive are the calls of the source. How the source made its calls: active means growth percent below 10; inactive means the rest.
Log the outcome using a class from active, inactive

molecule="CCOC(=O)/C(F)=C/C1CC1C1CCN(C(=O)OC(C)(C)C)CC1 (centres undefined)" assigned_label=inactive
molecule=CCc1ccccc1NC(=O)N/C(N)=N/c1nc2ccccc2s1 assigned_label=inactive
molecule=COc1ccc2[nH]c(O)c(N=Nc3nc(-c4ccc(C#N)cc4)cs3)c2c1 assigned_label=inactive
molecule="NS(=O)(=O)c1ccc(N2N=C(c3ccc(NC(=O)Nc4ccccc4)cc3)CC2c2ccc(Br)cc2)cc1 (centres undefined)" assigned_label=active
molecule=COc1cc(CNC(=O)C[C@H](C)CCC=C(C)C)ccc1OCc1cn(-c2ccc(Cl)cc2Cl)nn1 assigned_label=inactive
molecule=COc1cc(CNC(=O)C[C@H](C)CCC=C(C)C)ccc1OCc1cn(-c2cccc(C(F)(F)F)c2)nn1 assigned_label=inactive
molecule="O=C(c1ccc(O)cc1)C1[C@H](c2ccccc2Br)[C@@H](c2ccccc2)NC12C(=O)Nc1ccccc12 (some centres undefined)" assigned_label=inactive
molecule=C=CCSc1nnc(-c2ccc(-c3nc4ccccc4[nH]3)cc2)o1 assigned_label=inactive

Attention now shifts to the item below.
Which result was noted for this molecule in the test: `CCOc1ccccc1NC(=O)N/C(N)=N/c1nc2ccccc2s1`
inactive
